- Test Method Notes: Stability in rat plasma
- Format: in vitro ADME
- Experimental Parameters: both sexes, Wistar, 37° C., 100 μM peptide
Square brackets hold non-standard residues; d marks the D form. Peptide text beside a SMILES is read from it. Phe(4-NO2) = N[C@@H](Cc1ccc([N+](=O)[O-])cc1)C(=O)O; Phe(4-Cl) = N[C@@H](Cc1ccc(Cl)cc1)C(=O)O; NMeR = CN[C@@H](CCCNC(=N)N)C(=O)O; Sar = CNCC(=O)O
Quantity Kind: half-life at 100 µM (h)
Give just the number in h; leave the unit off.

Please review the following examples before continuing.
- Compound: "CC(C)C[C@H](NC(=O)[C@H](Cc1ccc([N+](=O)[O-])cc1)NC(=O)CN(C)C(=O)[C@@H](N)Cc1ccc(O)cc1)C(=O)N[C@@H](CCCNC(=N)N)C(=O)N[C@H](CCCNC(=N)N)C(N)=O [SEQ ID NO. 4, NH2-Tyr-Sar-(4-NO2)Phe-Leu-Arg-DArg-NH2] (H-Y[Sar][Phe(4-NO2)]LR[dR]-NH2)"
  Units Text: "h"
  half-life at 100 µM: 1.18
- Compound: "CC(C)C[C@H](NC(=O)[C@H](Cc1ccccc1)NC(=O)CN(C)C(=O)[C@@H](N)Cc1ccc(O)cc1)C(=O)N[C@@H](CCCNC(=N)N)C(=O)N[C@@H](CCCNC(=N)N)C(N)=O [SEQ ID NO. 2, NH2-Tyr-Sar-Phe-Leu-Arg-Arg-NH2] (H-Y[Sar]FLRR-NH2)"
  Units Text: "h"
  half-life at 100 µM: 1.61
- Compound: "CC(C)C[C@H](NC(=O)[C@H](Cc1ccc(Cl)cc1)NC(=O)CN(C)C(=O)[C@@H](N)Cc1ccc(O)cc1)C(=O)N[C@@H](CCCNC(=N)N)C(=O)N(C)[C@@H](CCCNC(=N)N)C(N)=O [SEQ ID NO. 17, NH2-Tyr-Sar-(4-Cl)Phe-Leu-Arg-NMA-NH2] (H-Y[Sar][Phe(4-Cl)]LR[NMeR]-NH2)"
  Units Text: "h"
  half-life at 100 µM: 2.9
- Compound: "CC(C)C[C@H](NC(=O)[C@H](Cc1ccc(Cl)cc1)NC(=O)CN(C)C(=O)[C@@H](N)Cc1ccc(O)cc1)C(=O)N(C)[C@@H](CCCNC(=N)N)C(=O)N[C@H](CCCNC(=N)N)C(N)=O [SEQ ID NO. 13, NH2-Tyr-Sar-(4-Cl)Phe-Leu-NMA-DArg-NH2] (H-Y[Sar][Phe(4-Cl)]L[NMeR][dR]-NH2)"
  Units Text: "h"
  half-life at 100 µM: 3.99

Shifting focus to the compound that follows.
### Prompt # half-life at 100 µM lookup, item CC(C)C[C@H](NC(=O)[C@H](Cc1ccccc1)NC(=O)CN(C)C(=O)[C@@H](N)Cc1ccc(O)cc1)C(=O)N[C@@H](CCCNC(=N)N)C(=O)N[C@H](CCCNC(=N)N)C(N)=O [SEQ ID NO. 3, NH2-Tyr-Sar-Phe-Leu-Arg-DArg-NH2] (H-Y[Sar]FLR[dR]-NH2)
### Response 1.2

----------
- Test Method Notes: Pharmacokinetic parameters after i.v. administration in rats
- Type: in vivo
- Experimental Parameters: in vivo, iv, rat, dose 0.3 mg/kg (SEQ ID NO. 19), 1 mg/kg (SEQ ID NO. 24), read-out: CLtotal
Square brackets hold non-standard residues; d marks the D form. Peptide text beside a SMILES is read from it. Phe(4-NO2) = N[C@@H](Cc1ccc([N+](=O)[O-])cc1)C(=O)O; NMeR = CN[C@@H](CCCNC(=N)N)C(=O)O; Sar = CNCC(=O)O
Quantity Kind: clearance

### Prompt # clearance lookup, item CC(C)C[C@H](NC(=O)[C@H](Cc1ccc([N+](=O)[O-])cc1)NC(=O)CN(C)C(=O)[C@@H](N)Cc1ccc(O)cc1)C(=O)N(C)[C@@H](CCCNC(=N)N)C(=O)N(C)[C@@H](CCCNC(=N)N)C(N)=O [SEQ ID NO. 19, NH2-Tyr-Sar-(4-NO2)Phe-Leu-NMA-NMA-NH2] (H-Y[Sar][Phe(4-NO2)]L[NMeR][NMeR]-NH2)
### Response 5.7 mL/min/kg
